B1: Hairpin Ribozyme (parent)
chain: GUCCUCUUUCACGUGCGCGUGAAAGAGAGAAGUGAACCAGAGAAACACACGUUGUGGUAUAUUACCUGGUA

Variants of: B1
procedure summary: self-cleavage, relative activity (ratio to wild type); higher = more cleavage; co-transcriptional
self-cleavage overview
property: self-cleavage

>>> reported("A22G A59C")
0.122
>>> reported("U2C A71U")
0.2
>>> reported("A43G A59G")
0.094
>>> reported("A41G G42C")
0.0762
>>> reported("C6U U63G")
0.119
>>> reported("A22G C66U")
0.453
>>> reported("U8A C10A")
0.458
>>> reported("G25A C48A")
0.176
>>> reported("A22G A31U")
0.226
>>> reported("G21U A35U")
0.626
>>> reported("C12A G32C")
0.0893
>>> reported("G32U A39G")
0.0986
>>> reported("C46A U63C")
0.225
>>> reported("U60C A61G")
0.228
>>> reported("G21A U67G")
0.241
>>> reported("G27U A36G")
0.393
>>> reported("G1U G68C")
0.0827
>>> reported("A22U C37A")
0.352
>>> reported("G40A A71U")
0.198
>>> reported("A47G U55C")
0.207
>>> reported("G34C A61U")
1.24
>>> reported("G32A C38A")
0.115
>>> reported("A59U C65U")
0.13
>>> reported("C38G A44G")
0.335
>>> reported("G42U U60G")
0.218
>>> reported("G34C A44C")
0.116
>>> reported("A23U U60G")
0.569
>>> reported("G40U G69C")
0.14
>>> reported("C10A A11U")
0.41
>>> reported("G32A A35C")
0.177
>>> reported("G42C U52G")
0.237
>>> reported("U20A G56A")
0.108
>>> reported("U8G A44G")
0.148
>>> reported("G13A U60C")
1.25
